concentration at 5 min overview
- ASSAY: Tissue distribution: concentration in plasma and skeletal muscle after oral or intravenous administration
- Type: in vivo
- CONDITION SET: male, Wistar, plasma; rat, oral administration of 100 mg/kg, 5 min
MEASURED ATTRIBUTE: concentration at 5 min

# COMPOUND, OBSERVED
measured = [
    ("CCCCOCCOCC(=O)N[C@@H](CN1CCOCC1)[C@@H](O)c1ccccc1", "2620 ng/mL"),
    ("CCCCCCCCCC(=O)N[C@@H](CN1CCOCC1)[C@@H](O)c1ccccc1 [L-PDMP, reference compound]", "10 ng/mL"),
]

====

- ASSAY: Tissue distribution: concentration in plasma and skeletal muscle after oral or intravenous administration
- Format: in vivo
- CONDITION SET: male, Wistar, plasma; rat, intravenous administration of 5 mg/kg, 10 min
- Method: Tissue distribution of the compound in Example 19 was compared with that of L-PDMP using 6-8 week old Wistar male rats. […] The plasma and skeletal muscle samples were extracted by OASIS HLB solid phase extraction column (manufactured by Waters), and the concentration of the test compound in the plasma and the muscle was determined by high performance liquid chromatography (HPLC). […]
Entries and their measured concentration at 10 min follow.

# MOLECULE, concentration at 10 min (ng/mL)
records = [
    ("CCCCOCCOCC(=O)N[C@@H](CN1CCOCC1)[C@@H](O)c1ccccc1", 2240),
    ("CCCCCCCCCC(=O)N[C@@H](CN1CCOCC1)[C@@H](O)c1ccccc1 [L-PDMP, reference compound]", 1030),
]

====

- ASSAY: Tissue distribution: concentration in plasma and skeletal muscle after oral or intravenous administration
- Format: in vivo
- CONDITION SET: male, Wistar, plasma; rat, intravenous administration of 5 mg/kg, 25 min
Attribute: concentration at 25 min

# MOLECULE, concentration at 25 min, ng/mL
measured = [
    ("CCCCCCCCCC(=O)N[C@@H](CN1CCOCC1)[C@@H](O)c1ccccc1 [L-PDMP, reference compound]", 620),
    ("CCCCOCCOCC(=O)N[C@@H](CN1CCOCC1)[C@@H](O)c1ccccc1", 560),
]
